Assign CC50 at 96 h to each entry below.
test method notes: Cytotoxicity against human MT4 cells assessed as reduction in cell viability incubated for 4 days by MTT assay
Format: cell-based
Numbers only, in µM.

• Cc1ccc(NC(=O)CS(=O)(=O)c2nccc(Oc3c(C)cc(C#N)cc3C)n2)cc1C = 13.9

Now consider the entry below.
[Q] What does the record list as CC50 at 96 h for Cc1cc(C#N)cc(C)c1Oc1ccnc(S(=O)(=O)CC(=O)Nc2cccc(F)c2)n1 ?
[A] 25.9

---

Assign selectivity ratio to each entry below.
test method notes: Selectivity index, ratio of CC50 for human MT4 cells to EC50 for HIV1 3B infected in human MT4 cells
Format: toxicity, cell-based
protocol conditions: read-out: Ratio CC50/EC50
Numbers only.

As a guide, the following entries are already answered.
- Cc1cc(C#N)cc(C)c1Oc1ccnc(S(=O)(=O)CC(=O)Nc2cc(Cl)cc(Cl)c2)n1: 58.9
- Cc1cc(C#N)cc(C)c1Oc1ccnc(S(=O)(=O)CC(=O)Nc2ccc(Cl)cc2)n1: 4740
- Cc1cc(C#N)cc(C)c1Oc1ccnc(S(=O)(=O)CC(=O)Nc2ccc([N+](=O)[O-])cc2)n1: 45800
- Cc1cc(C#N)cc(C)c1Oc1ccnc(S(=O)(=O)CC(=O)Nc2ccccc2Cl)n1: 8.7

[Q] What does the record list as selectivity ratio for Cc1cc(C#N)cc(C)c1Oc1ccnc(S(=O)(=O)CC(=O)Nc2ccc(Br)cc2)n1 ?
[A] 5980
